Below, each entry is listed alongside its reported IC50.
# Assay Target: Prostaglandin G/H synthase 1 (Ovis aries)
# Sequence (P05979 whole entry): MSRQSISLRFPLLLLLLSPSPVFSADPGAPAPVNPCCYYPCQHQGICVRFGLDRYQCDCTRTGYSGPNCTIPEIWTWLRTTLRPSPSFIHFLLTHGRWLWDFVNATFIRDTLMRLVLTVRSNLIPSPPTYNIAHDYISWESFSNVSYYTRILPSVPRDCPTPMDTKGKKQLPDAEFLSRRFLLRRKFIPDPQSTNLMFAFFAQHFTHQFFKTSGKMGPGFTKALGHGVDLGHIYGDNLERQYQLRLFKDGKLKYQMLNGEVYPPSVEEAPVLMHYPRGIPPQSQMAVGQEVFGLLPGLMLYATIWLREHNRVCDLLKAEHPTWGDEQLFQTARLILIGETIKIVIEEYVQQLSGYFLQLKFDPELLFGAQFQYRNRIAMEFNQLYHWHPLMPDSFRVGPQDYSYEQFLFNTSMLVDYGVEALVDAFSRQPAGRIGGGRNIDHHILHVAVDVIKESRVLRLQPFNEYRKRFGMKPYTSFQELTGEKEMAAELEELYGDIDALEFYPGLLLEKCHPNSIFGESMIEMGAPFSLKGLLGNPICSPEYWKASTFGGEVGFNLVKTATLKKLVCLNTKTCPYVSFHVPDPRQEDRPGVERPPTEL
Provide only the numeric value, understood in µM.

>>> numeric_readout("CS(=O)(=O)c1ccc(-c2cc(C(=O)O)c3cccc(-c4ccccc4)c3n2)cc1")
14.7
>>> numeric_readout("Cc1ccc2c(C(=O)O)cc(-c3ccc(S(C)(=O)=O)cc3)nc2c1C")
14.5
>>> numeric_readout("Cc1cccc2c(C(=O)O)cc(-c3ccc(S(C)(=O)=O)cc3)nc12")
14.2

Here's the next entry for you.
## Input Fill in reported IC50 for this entry: `CS(=O)(=O)c1ccc(-c2cc(C(=O)O)c3ccc4ccccc4c3n2)cc1`
## Output 17.6
